Molecular target: UniProt P28335
Sequence (P28335 whole entry): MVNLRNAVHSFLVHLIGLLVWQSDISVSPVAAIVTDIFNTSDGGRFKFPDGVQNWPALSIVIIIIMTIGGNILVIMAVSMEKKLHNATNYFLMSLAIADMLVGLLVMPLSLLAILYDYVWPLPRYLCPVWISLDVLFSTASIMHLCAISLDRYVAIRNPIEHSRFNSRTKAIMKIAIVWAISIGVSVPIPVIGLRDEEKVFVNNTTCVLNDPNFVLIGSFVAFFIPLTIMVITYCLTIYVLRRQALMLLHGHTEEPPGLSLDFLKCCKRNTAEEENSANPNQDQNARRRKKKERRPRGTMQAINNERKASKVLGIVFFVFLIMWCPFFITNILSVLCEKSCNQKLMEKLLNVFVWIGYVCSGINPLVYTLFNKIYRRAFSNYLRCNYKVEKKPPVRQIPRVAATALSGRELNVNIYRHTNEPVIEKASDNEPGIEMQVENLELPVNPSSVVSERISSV
Assembled from different publications: log10(Ki) for UniProt P28335.
Plainly stated, the numbers are log10 of Ki given in nM.

Lookup: May I ask what log10(Ki) has been recorded for O=C(c1cnn2ccccc12)N1CCN(CCc2ccc(F)cc2F)CC1 ?
Found: 2.39

Lookup: # input compound: COc1ccc(N2Cc3c(F)ccc(C(F)(F)F)c3C2=O)cc1OCCN1CCC(C)CC1 ; wanted: its log10(Ki)
Found: 0.80

Lookup: I'd like to know its log10(Ki). The compound in question is COc1ccc(N2CCC(c3ccc(Cl)c(Cl)c3)C2=O)cc1OCCN1CCC(C(C)C)CC1 (stereo not given)
Found: 1.40

Lookup: Record request: log10(Ki) value, item O=S(=O)(c1ccccc1Cl)N1CCC(CCc2ccc(F)cc2F)CC1
Found: 2.61

Lookup: Name the recorded log10(Ki) for Fc1ccc2c(C3CCN(CCCOc4ccc(CCN5CCOCC5)cc4)CC3)noc2c1 .
Found: 2.79

Lookup: Query (compound): O=c1ccc(OCCCN2CCC(c3noc4cc(F)ccc34)CC2)nn1-c1c(F)cccc1F ; field requested: log10(Ki)
Found: 3.20

Lookup: May I ask what log10(Ki) has been recorded for NC(N)=NC(=O)c1ccc2c(c1)Cc1ccccc1-2 ?
Found: 2.30

Lookup: Need log10(Ki), item COc1ccc2c(c1)CC(CN1CCC(C(=O)c3ccc(F)cc3)CC1)CC2=O (single isomer, unassigned; (-))
Found: 2.99
